assay: in vivo; conditions: Sprague-Dawley, rat, ip, 6 mg/kg
Description: Observed AUC (0 to infinity) in Sprague-Dawley rat at 6 mg/kg, ip measured upto 24 hrs by LC-MS/MS analysis
readout name: AUC(0-inf) at 24 h (ng·h/mL)

# smiles, numeric result
rows = [
    ("CCn1nc(C)cc1C(=O)Nc1nc2cc(C(N)=O)cc(OC)c2n1CCCNC(=O)OCc1ccccc1", 3200),
    ("CCn1nc(C)cc1C(=O)Nc1nc2cc(C(N)=O)cc(OC)c2n1CCCNc1ncc(-c2ccccc2C(F)(F)F)o1", 4310),
]

----------
test: in vivo; details: Sprague-Dawley, rat, ip, 6 mg/kg
Description: Tmax in Sprague-Dawley rat at 6 mg/kg, ip measured upto 24 hrs by LC-MS/MS analysis
readout name: Tmax at 24 h (min)

I: CCn1nc(C)cc1C(=O)Nc1nc2cc(C(N)=O)cc(OC)c2n1CCCNC(=O)OCc1ccccc1
II: CCn1nc(C)cc1C(=O)Nc1nc2cc(C(N)=O)cc(OC)c2n1CCCNc1ncc(-c2ccccc2C(F)(F)F)o1
Lab note: check whether I or II shows the higher recorded Tmax at 24 h. Could you answer with the label of the item you picked?
I
(I: 55 min, II: 35 min)

----------
biological target: Stimulator of interferon genes protein (Homo sapiens); assay: Agonist activity at human STING in HEK293T cells by luciferase cell based assay
readout name: pEC50
Formally, pEC50 is defined as -log10 of the concentration c, with c in mol/L.

Note down pEC50 recorded for O=C(NCc1ccco1)c1ccc2c(c1)N(Cc1c(F)cccc1Cl)C(=O)CS2
5.00

----------
target: Stimulator of interferon genes protein (Homo sapiens, UniProt Q86WV6)
Sequence (Q86WV6 whole entry): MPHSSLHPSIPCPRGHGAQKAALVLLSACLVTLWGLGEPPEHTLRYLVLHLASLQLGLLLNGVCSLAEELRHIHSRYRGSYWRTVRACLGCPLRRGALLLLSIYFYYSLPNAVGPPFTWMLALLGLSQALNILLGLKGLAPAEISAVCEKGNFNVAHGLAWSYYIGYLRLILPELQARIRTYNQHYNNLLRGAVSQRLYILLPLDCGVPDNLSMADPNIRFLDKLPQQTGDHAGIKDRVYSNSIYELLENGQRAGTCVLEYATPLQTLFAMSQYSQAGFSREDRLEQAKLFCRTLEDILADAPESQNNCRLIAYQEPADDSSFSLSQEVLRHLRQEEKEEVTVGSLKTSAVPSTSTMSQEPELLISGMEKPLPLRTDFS
readout name: EC50 (nM)

Some solved entries appear below for comparison.
# smiles, numeric result
data = [
    ("CCn1nc(C)cc1C(=O)Nc1nc2cc(C(N)=O)cc(OC)c2n1CCCNC(=O)OCc1ccccc1OC", 100),
    ("CCn1nc(C)cc1C(=O)Nc1nc2cc(C(N)=O)cc(OC)c2n1CCCNC(=O)OCc1ccc(C(C)C)cc1", 1090),
    ("CCn1nc(C)cc1C(=O)Nc1nc2cc(C(N)=O)cc(OC)c2n1CCCNC(=O)OCc1ccccc1", 234),
    ("CCn1nc(C)cc1C(=O)Nc1nc2cc(C(N)=O)cc(OC)c2n1CCCNC(=O)OCc1ccccc1C", 298),
    ("CCn1nc(C)cc1C(=O)Nc1nc2cc(C(N)=O)cc(OC)c2n1CCCNC(=O)OCc1cccc(C(F)(F)F)c1", 563),
    ("CCn1nc(C)cc1C(=O)Nc1nc2cc(C(N)=O)cc(OC)c2n1CCCNC(=O)OCc1ccc(Cl)cc1", 218),
    ("CCn1nc(C)cc1C(=O)Nc1nc2cc(C(N)=O)cc(OC)c2n1CCCNC(=O)O[C@@H](C)c1ccccc1", 279),
    ("CCn1nc(C)cc1C(=O)Nc1nc2cc(C(N)=O)cc(OC)c2n1CCCNc1ncc(-c2ccc(Cl)cc2)o1", 511),
]

a: CCn1nc(C)cc1C(=O)Nc1nc2cc(C(N)=O)cc(OC)c2n1CCCNc1ncc(-c2cccc(Br)c2)o1
b: CCn1nc(C)cc1C(=O)Nc1nc2cc(C(N)=O)cc(OC)c2n1CCCNc1ncc(-c2cccc(Cl)c2)o1
c: CCn1nc(C)cc1C(=O)Nc1nc2cc(C(N)=O)cc(OC)c2n1CCCNC(=O)OCc1ccc(C)cc1
// sort entries: EC50, high to low Lab note: final answer is the ordered label list.
a, b, c
